# assayed target: T1, HLA-A2.1 on T2 cells (human)
# T1 construct: Peptide-receptive HLA-A2.1 on T2 cells; also called HLA-A2.1 MHC class I molecules
# experiment: peptide binding to HLA-A2.1+ T2 cells, complex stability; Brefeldin A 0 hr (T2 alone 226)
Listed here are binders together with their documented binding score (HLA-A2.1 on T2 cells).

Requested field: binding score (HLA-A2.1 on T2 cells). Item: YIIIGDSPV (Modified CD33 peptide) [YIIIGDSPV (SEQ ID NO: 11)]
301

For the binder YIISGDSWV (Modified CD33 peptide) [YIISGDSWV (SEQ ID NO: 14)] , what binding score (HLA-A2.1 on T2 cells) is on record?
247

Can you share its binding score (HLA-A2.1 on T2 cells)? I mean this binder: YIISGDSPV (Modified CD33 peptide) [YIISGDSPV (SEQ ID NO: 3)]
641

I would be grateful if you could share the reported binding score (HLA-A2.1 on T2 cells) for ALISGDSPV (Modified CD33 peptide) [ALISGDSPV (SEQ ID NO: 16)] .
677

Dear colleague, I am looking for the recorded binding score (HLA-A2.1 on T2 cells) of the following binder: YLISGDSPV (Modified CD33 peptide) [YLISGDSPV (SEQ ID NO: 7)]
728

Entry under review: YIISGDLPV (Modified CD33 peptide) [YIISGDLPV (SEQ ID NO: 13)] . Reported binding score (HLA-A2.1 on T2 cells)?
724

Fill in: binding score (HLA-A2.1 on T2 cells) of YIGSGDSPV (Modified CD33 peptide) [YIGSGDSPV (SEQ ID NO: 10)] is ___
687

Consider the binder YIISGDSPL (Modified CD33 peptide) [YIISGDSPL (SEQ ID NO: 15)] and give its measured binding score (HLA-A2.1 on T2 cells).
426

Recorded binding score (HLA-A2.1 on T2 cells) of YIISGISPV (Modified CD33 peptide) [YIISGISPV (SEQ ID NO: 6)] , please.
840

# binding score (HLA-A2.1 on T2 cells) lookup, item YIILGDSPV (Modified CD33 peptide) [YIILGDSPV (SEQ ID NO: 12)]
488

Can you look up the measured binding score (HLA-A2.1 on T2 cells) of TIQLNVTYV (Native CD33 nonamer, extracellular domain; also called CD33226-234) [CD33 peptide TIQLNVTYV (residues 226-234, SEQ ID NO: 9)] for me?
218
